test system: NCI-H1975-BCRP cells; assay: Cytotoxicity (Alamar Blue), NCI-H1975-BCRP; assay type: cell-based, human; conditions: 72 h, no elastase
readout_type: IC50
Hey, just the number and the unit after it is fine.

(Q) Please provide the recorded IC50 for "CCc1c2c(nc3ccc(O)cc13)-c1cc3c(c(=O)n1C2)COC(=O)[C@]3(O)CC" , tested on NCI-H1975-BCRP cells.
(A) 0.512 µM

====

test system: NCI-H1975-P-gp cells; assay: Cytotoxicity (Alamar Blue), NCI-H1975-P-gp; format: cell-based, human; details: 72 h, no elastase
readout_type: pIC50
Please keep in mind that pIC50 is minus log10 of the molar concentration; only the number is needed.

(Q) Look at this molecule and give its reported pIC50. "CCc1c2c(nc3ccc(O)cc13)-c1cc3c(c(=O)n1C2)COC(=O)[C@]3(O)CC"
(A) 6.85
